Reported logP values are given for each entry in this list.
# test_description: logP by HPLC (EEC Directive 79/831 Annex V.A8)
# Format: physicochemical
# details: [b] LC-MS, acidic range, pH 2.7, 0.1% aqueous formic acid and acetonitrile

{"molecule": "Cc1ccc([N+](=O)[O-])cc1NC(=O)N1CCC(c2nc(C(=O)OCc3ccccc3Br)cs2)CC1 [Example 110]", "logP": 3.69}
{"molecule": "O=C(OCc1c(F)cccc1F)c1csc(C2(F)CCN(C(=O)Cn3nc(C(F)F)cc3C(F)F)CC2)n1 [Example 168]", "logP": 3.53}
{"molecule": "COc1ccc(OC)c(NC(=O)N2CCC(c3nc(C(=O)OCc4ccccc4Br)cs3)CC2)c1 [Example 103]", "logP": 3.83}
{"molecule": "O=C(OCc1ccccc1Br)c1csc(C2CCN(C(=O)Nc3cc(C(F)(F)F)ccc3F)CC2)n1 [Example 111]", "logP": "4.29^[c]; 4.29^[b]"}
{"molecule": "Cc1ccc(Br)cc1CC(=O)N1CCC(c2nc(C(=O)OC3CCCCC3)cs2)CC1 [Example 17]", "logP": "4.47^[b]"}
{"molecule": "O=C(OCc1ccccc1Br)c1csc(C2CCN(C(=S)Nc3cc(F)ccc3F)CC2)n1 [Example 116]", "logP": 3.83}
{"molecule": "Cc1ccc(C)c(NC(=O)N2CCC(c3nc(C(=O)Oc4c(F)cccc4Br)cs3)CC2)c1 [Example 152]", "logP": "3.86^[b]"}
{"molecule": "O=C(OCc1ccccc1Br)c1csc(C2CCN(C(=S)Nc3cc(C(F)(F)F)ccc3F)CC2)n1 [Example 118]", "logP": 4.34}
{"molecule": "Cc1cc(C(F)(F)F)nn1CC(=O)N1CCN(c2nc(C(=O)OCc3ccc(F)cc3F)cs2)CC1 [Example 53]", "logP": 3.42}
{"molecule": "CCCCC(=O)N1CCC(c2nc(C(=O)OC3CCCCC3)cs2)CC1 [Example 4]", "logP": "3.64^[b]"}
{"molecule": "Cc1ccc(C)c(NC(=O)N2CCC(F)(c3nc(C(=O)OCc4c(F)cccc4F)cs3)CC2)c1 [Example 171]", "logP": 3.69}
{"molecule": "COc1ccc(C)cc1NC(=O)N1CCC(c2nc(C(=O)OCc3c(F)cccc3F)cs2)CC1 [Example 164]", "logP": "3.66^[b]"}
{"molecule": "O=C(OCc1ccccc1Br)c1csc(C2CCN(C(=O)Nc3cc(F)ccc3F)CC2)n1 [Example 84]", "logP": "3.79^[c]; 3.79^[b]"}
{"molecule": "Cc1ccc(F)cc1NC(=S)N1CCC(c2nc(C(=O)OCc3ccccc3Br)cs2)CC1 [Example 117]", "logP": "3.98^[c]; 3.98^[b]"}
{"molecule": "Cc1cc(C(F)(F)F)nn1CC(=O)N1CCN(c2nc(C(=O)OC(C)c3cc(Cl)ccc3Cl)cs2)CC1 (centres unmarked) [Example 31]", "logP": "4.28^[b]"}
{"molecule": "Cc1ccc(C)c(NC(=O)N2CCC(c3nc(C(=O)OCc4ccccc4I)cs3)CC2)c1 [Example 136]", "logP": "3.96^[b]"}
{"molecule": "O=C(Oc1cccc2ccccc12)c1csc(C2CCN(C(=O)Cc3cccc(Cl)c3)CC2)n1 [Example 10]", "logP": "4.01^[b]"}
{"molecule": "Cc1ccc(Cl)cc1NC(=O)N1CCC(c2nc(C(=O)OC3CCCc4ccccc43)cs2)CC1 (centres unmarked) [Example 125]", "logP": 4.27}
{"molecule": "Cc1ccc(C)c(NC(=O)N2CCC(c3nc(C(=O)Oc4ccccc4F)cs3)CC2)c1 [Example 147]", "logP": "3.27^[b]"}
{"molecule": "Cc1ccc(Cl)cc1NC(=O)N1CCC(c2nc(C(=O)OC3CCCCC3)cs2)CC1 [Example 72]", "logP": "4.10^[b]"}
{"molecule": "Cc1cc(CC(=O)N2CCC(c3nc(C(=O)OC4CCCCC4)cs3)CC2)n(C)n1 [Example 86]", "logP": 2.6}
{"molecule": "O=C(OCc1ccccc1Br)c1csc(C2CCN(C(=S)Nc3cc(Cl)ccc3Cl)CC2)n1 [Example 113]", "logP": 4.4}
{"molecule": "Cc1ccc(C)c(NC(=O)N2CCC(c3nc(C(=O)Oc4c(C)cccc4Br)cs3)CC2)c1 [Example 141]", "logP": "3.82^[b]"}
{"molecule": "Cc1cc(C(F)(F)F)nn1CC(=O)N1CCC(F)(c2nc(C(=O)O[C@@H]3CCCc4ccccc43)cs2)CC1 [Example 127]", "logP": "4.25^[b]"}
{"molecule": "Cc1noc(C)c1NC(=S)N1CCC(c2nc(C(=O)OCc3ccccc3Br)cs2)CC1 [Example 119]", "logP": 3.2}
{"molecule": "COc1ccc(C)cc1NC(=O)N1CCC(c2nc(C(=O)OC3CCCCC3)cs2)CC1 [Example 71]", "logP": "4.18^[b]"}
{"molecule": "Cc1ccc(F)cc1NC(=O)N1CCC(c2nc(C(=O)OCc3ccccc3Br)cs2)CC1 [Example 90]", "logP": 3.77}
{"molecule": "O=C(OC1CCCCC1)c1csc(C2CCN(C(=O)Cc3cc(C(F)(F)F)ccc3Br)CC2)n1 [Example 13]", "logP": "4.75^[b]"}
{"molecule": "Cc1ccc(Cl)c(NC(=O)N2CCC(c3nc(C(=O)OC4CCCCC4)cs3)CC2)c1 [Example 62]", "logP": "4.30^[b]"}
{"molecule": "Cc1cc(C(F)(F)F)nn1CC(=O)N1CCN(c2nc(C(=O)Oc3cccc4cccnc34)cs2)CC1 [Example 36]", "logP": 2.85}
{"molecule": "O=C(OC1CCCCC1)c1csc(C2CCN(C(=O)Cc3nc(C(F)(F)F)ccc3Cl)CC2)n1 [Example 52]", "logP": "4.08^[b]"}
{"molecule": "Cc1ccc(Cl)cc1NC(=S)N1CCC(c2nc(C(=O)OC3CCCCC3c3ccccc3)cs2)CC1 (centres unmarked) [Example 159]", "logP": "4.83^[b]"}
